Reported values of AUC dsA2/pep for individual entries
- testedTarget: dsA2: HLA-A*02:01(Y84C/A139C) disulfide mutant heavy chain / β2m complex (Homo sapiens, UniProt P04439, D140Y/D185E/D98H/E176V/E277Q/G131W/G231S/I119V/I121R/I166T/I218V/L300P/L318F/N151K/N90K/P208A/P217A/Q86G/Q94H/R138H/R169H/T345S/A163C/Y108C)
- Construct: made in house; host or cells: Escherichia coli (pET3a)
- methodNotes: native mass spectrometry (nMS) of peptide binding to empty dsA2
- runConditions: acceleration voltage 25 V, cone 150 V; ratio 1:5; raw data; mean of >=3 measurements
Ends that are not written are not given here.
Express your answer in %, writing the number without its unit.

Here's what some known entries look like.
# substance, AUC dsA2/pep [%]
data = [
    ("VPMVATV [VV7]", 17),
    ("GLGGGGGGV [GV9]", 43),
    ("PMVATV [PV6]", 13),
    ("NLVPMVAT [NT8]", 28.2),
    ("YPNVNIHNF [YF9, reference compound]", 5),
]

-- ask Give the reported value of AUC dsA2/pep for this record: NLVPMV [NV6]
-- reply 11

-- ask Give the reported value of AUC dsA2/pep for this record: NLVPMVA [NA7]
-- reply 19

-- ask Give the reported value of AUC dsA2/pep for this record: LVPMVATV [LV8]
-- reply 54

* * *

- testedTarget: dsA2: HLA-A*02:01(Y84C/A139C) disulfide mutant heavy chain / β2m complex (Homo sapiens, UniProt P04439, D140Y/D185E/D98H/E176V/E277Q/G131W/G231S/I119V/I121R/I166T/I218V/L300P/L318F/N151K/N90K/P208A/P217A/Q86G/Q94H/R138H/R169H/T345S/A163C/Y108C)
- Construct: made in house; host or cells: Escherichia coli (pET3a)
- methodNotes: native mass spectrometry (nMS) of peptide binding to empty dsA2
- runConditions: acceleration voltage 10 V, cone 150 V; ratio 1:5; raw data; mean of >=3 measurements
Ends that are not written are not given here.
Could you please mark yes (1) for values of AUC dsA2/erucamide below 20% and no (0) for values at or above it?

Examples from the recorded data:
# substance, assignedCategory
measured = [
    ("NLVPMVA [NA7]", "yes (1)"),
    ("VPMVATV [VV7]", "yes (1)"),
    ("PMVATV [PV6]", "yes (1)"),
    ("NLVPMV [NV6]", "no (0)"),
    ("LVPMVATV [LV8]", "yes (1)"),
]

-- ask Is 20% strictly greater than the substance's reported AUC dsA2/erucamide? substance: NLVPMVAT [NT8]
-- reply no (0)

-- ask Is 20% strictly greater than the substance's reported AUC dsA2/erucamide? substance: GLGGGGGGV [GV9]
-- reply yes (1)

* * *

- testedTarget: dsA2: HLA-A*02:01(Y84C/A139C) disulfide mutant heavy chain / β2m complex (Homo sapiens, UniProt P04439, A163C/D140Y/D185E/D98H/E176V/E277Q/G131W/G231S/I119V/I121R/I166T/I218V/L300P/L318F/N151K/N90K/P208A/P217A/Q86G/Q94H/R138H/R169H/T345S/Y108C)
- Construct: made in house; host or cells: Escherichia coli (pET3a)
- methodNotes: native mass spectrometry (nMS) of peptide binding to empty dsA2
- runConditions: read-out: Kd,high
Ends that are not written are not given here.
observedProperty: pKd
Lab note — pKd values are minus log10 of concentrations in M.

-- ask Give the reported value of pKd for this record: GLGGGGGGV [GV9]
-- reply 4.46

* * *

- testedTarget: dsA2: HLA-A*02:01(Y84C/A139C) disulfide mutant heavy chain / β2m complex (Homo sapiens, UniProt P04439, A163C/D140Y/D185E/D98H/E176V/E277Q/G131W/G231S/I119V/I121R/I166T/I218V/L300P/L318F/N151K/N90K/P208A/P217A/Q86G/Q94H/R138H/R169H/T345S/Y108C)
- Construct: made in house; host or cells: Escherichia coli (pET3a)
- methodNotes: biochemical
- Type: binding
- runConditions: dsA2 2.2 µM, 20 mM Tris pH 8, 150 mM NaCl; twofold serial dilution, 11 concentrations; two independent measurements; values marked * (below 200 nM) not reliable; read-out: Kd,iDSF
Ends that are not written are not given here.
observedProperty: Kd (nM)
Express your answer in nM, writing the number without its unit.

-- ask Give the reported value of Kd for this record: GLGGGGGGV [GV9]
-- reply 360

* * *

Reported values of AUC dsA2 (empty) for individual entries
- testedTarget: dsA2: HLA-A*02:01(Y84C/A139C) disulfide mutant heavy chain / β2m complex (Homo sapiens, UniProt P04439, D140Y/D185E/D98H/E176V/E277Q/G131W/G231S/I119V/I121R/I166T/I218V/L300P/L318F/N151K/N90K/P208A/P217A/Q86G/Q94H/R138H/R169H/T345S/A163C/Y108C)
- Construct: made in house; host or cells: Escherichia coli (pET3a)
- methodNotes: native mass spectrometry (nMS) of peptide binding to empty dsA2
- runConditions: acceleration voltage 50 V, cone 150 V; ratio 1:5; raw data; mean of >=3 measurements
Ends that are not written are not given here.
Express your answer in %, writing the number without its unit.

Here's what some known entries look like.
# substance, AUC dsA2 (empty) [%]
data = [
    ("YPNVNIHNF [YF9, reference compound]", 95),
    ("NLVPMV [NV6]", 91.2),
    ("NLVPMVAT [NT8]", 75),
    ("NLVPMVA [NA7]", 86),
    ("LVPMVATV [LV8]", 53),
    ("PMVATV [PV6]", 90),
    ("GLGGGGGGV [GV9]", 62),
]

From here, focus on the item given below.
-- ask Give the reported value of AUC dsA2 (empty) for this record: VPMVATV [VV7]
-- reply 96

* * *

- testedTarget: dsA2: HLA-A*02:01(Y84C/A139C) disulfide mutant heavy chain / β2m complex (Homo sapiens, UniProt P04439, A163C/D140Y/D185E/D98H/E176V/E277Q/G131W/G231S/I119V/I121R/I166T/I218V/L300P/L318F/N151K/N90K/P208A/P217A/Q86G/Q94H/R138H/R169H/T345S/Y108C)
- Construct: made in house; host or cells: Escherichia coli (pET3a)
- methodNotes: native mass spectrometry (nMS) of peptide binding to empty dsA2
- runConditions: Kd,low
Ends that are not written are not given here.
Reported values of Kd for individual entries
Express your answer in µM, writing the number without its unit.

Here's what some known entries look like.
# substance, displayUnit, Kd
rows = [
    ("NLVPMVA [NA7]", "µM", 2),
    ("VPMVATV [VV7]", "µM", 15),
    ("PMVATV [PV6]", "µM", 15),
]

-- ask Give the reported value of Kd for this record: NLVPMV [NV6]
-- reply 30

* * *

- testedTarget: dsA2: HLA-A*02:01(Y84C/A139C) disulfide mutant heavy chain / β2m complex (Homo sapiens, UniProt P04439, D140Y/D185E/D98H/E176V/E277Q/G131W/G231S/I119V/I121R/I166T/I218V/L300P/L318F/N151K/N90K/P208A/P217A/Q86G/Q94H/R138H/R169H/T345S/A163C/Y108C)
- Construct: made in house; host or cells: Escherichia coli (pET3a)
- methodNotes: native mass spectrometry (nMS) of peptide binding to empty dsA2;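 also: native nano-electrospray MS on Q-Tof II in positive mode, dsA2 at 10 µM with peptide 50–200 µM, incubated ≥10 min on ice, argon collision gas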
- runConditions: acceleration voltage 25 V, cone 150 V; ratio 1:5; raw data; mean of >=3 measurements
Ends that are not written are not given here.
Reported values of AUC dsA2/erucamide for individual entries
Express your answer in %, writing the number without its unit.

# substance, displayUnit, AUC dsA2/erucamide
records = [
    ("LVPMVATV [LV8]", "%", 1.5),
]

-- ask Give the reported value of AUC dsA2/erucamide for this record: YPNVNIHNF [YF9, reference compound]
-- reply 44

-- ask Give the reported value of AUC dsA2/erucamide for this record: NLVPMVAT [NT8]
-- reply 21

-- ask Give the reported value of AUC dsA2/erucamide for this record: VPMVATV [VV7]
-- reply 20.2

-- ask Give the reported value of AUC dsA2/erucamide for this record: GLGGGGGGV [GV9]
-- reply 5

-- ask Give the reported value of AUC dsA2/erucamide for this record: NLVPMV [NV6]
-- reply 22

-- ask Give the reported value of AUC dsA2/erucamide for this record: NLVPMVA [NA7]
-- reply 11

-- ask Give the reported value of AUC dsA2/erucamide for this record: PMVATV [PV6]
-- reply 19

Ref: paper PMC9127112
